test: Maximum plasma concentration was evaluated in 0.5% methylcellulose suspension at a dose of 20 mg/kg orally; assay type: ADME, organism-based; set-up: dose 20 mg/kg, route oral; conditions: po
attribute.measured: Cmax (ng/mL)

[I] C[C@](Cc1c[nH]c2ccccc12)(NC(=O)OC1C2CC3CC(C2)CC1C3)C(=O)N[C@@H]1CCCC[C@H]1O (some centres not stated)
[II] C[C@](Cc1c[nH]c2ccccc12)(NC(=O)OC1C2CC3CC(C2)CC1C3)C(=O)N[C@H](CO)Cc1ccccc1 (some centres not stated)
Kindly identify the item with the lower Cmax figure among these two: I and II # respond with the chosen item's label II

====

assay: Pharmacokinetic parameter tmax was evaluated in Hp-beta-CD solution at a dose of 20 mg/kg orally; type: ADME, organism-based; parameters: dose 20 mg/kg, route oral; settings: in vivo, po
attribute.measured: Tmax (min)
A number alone suffices; assume min.

// lookup Tmax for C[C@](Cc1c[nH]c2ccccc12)(NC(=O)OC1[C@H]2C[C@@H]3C[C@@H](C[C@H]1C3)C2)C(=O)NC[C@H](NC(=O)CCC(=O)O)c1ccccc1 (stereo partly specified) 15
